- Measurement description: Half life in rat at 1 mg/kg, iv and 2 mg/kg, po
- Format: ADME, organism-based
- Protocol conditions: in vivo

{"Compound": "CN(C)CCC1(c2ccccc2)CCCN(C(=O)Nc2ccc(Cl)cc2)C1 (stereo not given)", "half-life (h)": 0.66}
{"Compound": "NC(=O)CCC1(c2ccccc2)CCCN(C(=O)Nc2ccc(Cl)cc2)C1 (stereo not given)", "half-life (h)": 4.4}
{"Compound": "O=C(O)CCC1(c2ccccc2)CCCN(C(=O)Nc2ccc(Cl)cc2)C1 (stereo in doubt; 2b)", "half-life (h)": 3.2}
{"Compound": "O=C(Nc1ccc(Cl)cc1)N1CCCC(CCc2nn[nH]n2)(c2ccccc2)C1 (stereo not given)", "half-life (h)": 0.39}
{"Compound": "CC1(c2ccccc2)CCCN(C(=O)Nc2ccc(Cl)cc2)C1 (stereo not given)", "half-life (h)": 3.9}
